Below: a set of entries, each annotated with reported melting point.
Measurement label: melting point

• O=C(CCc1ccccc1)CN1C(=O)CC1S(=O)Cc1ccccc1 (stereo not given) = 110 to 111 °C
• COC(=O)c1c(C(F)F)nc(C(F)(F)F)c(C(=O)OC)c1CC(C)C = 36 to 37 °C
• CC(=O)N1Cc2c(n(-c3cccc(Cl)c3)c3ncccc3c2=O)C1 = 170 to 173 °C
• CNC(=O)c1cccc(Cl)c1Nc1nc(Nc2ccc3c(c2)CCCC(=O)N3CCOC)ncc1Cl = 136 to 157 °C
• CCCCn1nc(C)c(C(N)=O)c1Cc1ccc(-c2ccccc2-c2nnn[nH]2)cc1 = 204 to 208 °C
• Cc1ccc([N+](=O)[O-])cc1S(=O)(=O)N1CCOCC1 = 114 to 115 °C
• CC(C)NC(=O)C(O)C(Oc1ccccc1)c1ccc(Cl)cc1 (stereo not given) = 175 to 177 °C
• NC(=O)c1cc(N(Cc2c(F)c(F)c(C(F)(F)F)c(F)c2F)C(=O)C(F)(F)F)ccc1OC(=O)C(F)(F)F = 179 to 180 °C
• C=CCNC(=O)COc1ccc(C2=NNC(=O)CC2)cc1Cl = 145 to 146 °C
• COC(=O)C=C(C)NCC(O)CO (stereo not given) = 109 to 111 °C

====

Listed below: melting point values for each entry.
Measurement label: melting point

* O=C([C@@H]1CCCN1C(=O)OCc1ccccc1)N1CCOCC1 | 139 to 140 °C
* C#Cc1ccc2c(c1)c1cc(-c3ccc(Cl)cc3Cl)c(=O)n(C)c1n2C | 184 to 185 °C
* O=S(=O)(CCNc1ccccc1)NCCCOc1cccc(CN2CCCCC2)c1 | 112 to 115 °C
* CCOCc1cc2cc(Cl)ccc2oc1=O | 100 to 101 °C
* CC(=O)OCc1ncc2n1-c1ccc(Cl)cc1C(c1ccccc1F)=NC2 | 151 to 152 °C
* COC(=O)c1ccc2c(c1)S(=O)(=O)c1ccccc1N=C2N1CCOCC1 | 164 to 166 °C
* CC(C)N(C1CCCCC1)S(=O)(=O)N[C@@H](Cc1ccc(Oc2nccc3cnccc23)cc1)C(=O)O | 138 °C
* Clc1ccc2c(c1)C(c1ccccc1)=NCc1ccccc1-2 | 118 to 119 °C
* N#Cc1cnc2c(c1Nc1cccc(Br)c1)C=C1N=CN=C1C2 | 286 to 288 °C
* O=C(O)Cc1c(C(=O)O)c2cc(Oc3ccc(Cl)cc3)ccc2n1-c1ccccc1 | 202 to 204 °C
* CS(=O)(=S)OCCCCC(=O)O (stereo not given) | 61 to 62.5 °C
* N#CC(C#N)=C1N(CCCN2CCCCC2)CCN1CCN1CCCC1 | 63 to 64 °C
* O=[N+]([O-])c1ccc(CP2(=O)OCCO2)cc1 | 144 to 145 °C
* CC(C)(C)OC(=O)c1ccc([N+](=O)[O-])c(OCCOc2cc(C(=O)OC(C)(C)C)ccc2[N+](=O)[O-])c1 | 155 to 157 °C
* CN(C)CCCC1CCN(C=Nc2ccc3c(c2)C(=O)c2ccc(N=CN4CCC(CCCN(C)C)CC4)cc2C3=O)CC1 | 171 to 174 °C
* CC(C)(C)OC(=O)COc1ccc(-c2c(Cl)c(CN3C(=O)CCC3=O)nc3sc4c(c23)CCS(=O)C4)cc1 (stereo not given) | 175 to 176 °C
* FC(F)(F)c1ccc(N=c2ccc3nc4ccccc4sc-3c2)cc1 | 207 to 208 °C
* Cc1c(O)ccc(C(=O)c2cccs2)c1C | 144 °C
* CNC(=O)C(Cc1ccc(OC)cc1)NC(=O)C(=CCC(=O)OC)CC(C)C (stereo not given) | 142 to 144 °C
* O=C1Nc2ccccc2N(C(=O)CN2C(=O)CCCC2=O)C2CCC(Cc3ccccc3)C12 (stereo not given) | 220 to 221 °C
* CC(=O)OCC(=O)C1(O)CCC2C3CC=C4C=C(OC(C)=O)C=CC4(C)C34OC4CC21C (stereo not given) | 194 °C
* O=C(/C=C/c1cccc(NS(=O)(=O)c2ccc(C(=O)Nc3ccc(Cl)c(-c4ccccn4)c3)c(Cl)c2)c1)NO | 217 to 221 °C
* COc1ccc2nc(CBr)sc2c1 | 78 to 81 °C
* Clc1cncnc1NCc1ccc(OCc2ccccc2)cc1 | 95 to 100 °C
* Nc1ccc(C2=NNC(=O)C3CC23)cc1 (stereo not given) | 230 to 231 °C
* CCOc1sc(C)nc1S(N)(=O)=O | 118 to 120 °C
* N#Cc1c(N2CCNCC2)c2cc(F)ccc2n(Cc2ccc(F)cc2)c1=O | 240 °C
* CCCSc1cc(-c2ccc(C(F)(F)F)cc2)c(F)cc1[N+](=O)[O-] | 57 to 59 °C
* CN1CCC(=O)C(=C(c2ccccc2)c2ccccc2)C1 | 129 to 131 °C
* Cc1cc(C)cc(OC(=O)C(c2ccccc2)N2CCN(C3CCN(C(=O)c4cc(C(F)(F)F)cc(C(F)(F)F)c4)C(Cc4ccccc4)C3)CC2)c1 (stereo not given) | 88.1 °C
* O=C1Nc2ccc(F)c(F)c2[C@@](C#CC2CC2)(C(F)(F)F)O[C@H]1C1CC1 (relative stereo) | 222 °C
* CCOC(=O)c1ncn2c1CNC(=O)c1sccc1-2 | 263 to 264 °C
* CCCc1ccc2c(C(=O)O)ccc(OC)c2n1 | 214 to 217 °C
* Cc1c(-c2ccccc2)[nH]c(=O)n1C1CCN(Cc2cccc3c2OCO3)CC1 | 244 to 245 °C
* CSC(=NC#N)N(C)N | 69 to 71 °C
* CC(C)(C)OC(=O)N1CCN(CCc2ccc(F)cc2)CC1 | 68 to 70 °C
* O=C(O)c1ccc(NN=C2CCCC2)cc1 | 250 to 253 °C
* COc1ccc(-c2ccc(S(=O)(=O)CC(C)N(O)C=O)cc2)cc1 (stereo not given) | 197 to 198 °C
* CCCc1nc2c(N)nc3cc(Oc4ccc(N)cc4)ccc3c2n1CC(C)C | 190 to 191 °C
* O=[N+]([O-])c1cccc(-c2cc(C(O)c3ccnc(Cl)c3)cc3ccoc23)c1 (stereo not given) | 178 to 180 °C
